# Target or test system: glucose-6-phosphate dehydrogenase-6-phosphogluconolactonase (Plasmodium falciparum 3D7)
# Experiment summary: inhibition of P. falciparum G6PD activity – biochemical, end-point NADPH detection, orthogonal assay, dose response (AID 540252)
# Condition summary: purified PfG6PD enzyme, NADPH direct detection
Active and inactive are the calls of the source. How the calls were made is not given here.
Output constraint: value belongs to t = active, f = inactive

Compound: S=c1ncc2[nH]c(=S)[nH]c2[nH]1
Class name: t

Incoming: What classification did `CCN(CC)CCNC(=O)CCCCn1c(=S)[nH]c2c([nH]c3ccc(OC)cc32)c1=O` end up with in this test?
Outgoing: f

Incoming: Then this compound: `CC1=CC(C)(C)Nc2ccc(OC(=O)CN3C(=O)c4cccc5cccc(c45)C3=O)cc21`
Outgoing: f

Incoming: Then this compound: CCS(=O)(=O)N1CCN(c2ccc([N+](=O)[O-])c(NC(C)c3ccccc3)c2)CC1 (stereo unspecified)
Outgoing: f

Incoming: Then this compound: `O=C1C(c2cc(=O)c3ccccc3[nH]2)=C(O)c2ccccc21`
Outgoing: f

###

# Target or test system: glucose-6-phosphate dehydrogenase-6-phosphogluconolactonase (Plasmodium falciparum 3D7)
# Experiment summary: inhibition of P. falciparum G6PD activity – biochemical, end-point NADPH detection, orthogonal assay, dose response (AID 540252)
# Condition summary: purified PfG6PD enzyme, NADPH direct detection
Activity calls are given as the source filed them. The rule behind the calls is not given here.
Output constraint: value belongs to active, inactive

Known results for compounds:
Compound: Cc1nc2ccc(Nc3nc4cc(S(=O)(=O)N5CCOCC5)ccc4o3)cc2s1
Target or test system: glucose-6-phosphate dehydrogenase-6-phosphogluconolactonase (Plasmodium falciparum 3D7)
Class name: inactive
//
Compound: COC(=O)c1cc2c(n1S(=O)(=O)c1ccc(C)cc1)C(=O)C(=O)c1[nH]cc(C(=O)OCc3ccccc3)c1-2
Target or test system: glucose-6-phosphate dehydrogenase-6-phosphogluconolactonase (Plasmodium falciparum 3D7)
Class name: inactive

Incoming: What classification did `C=CCc1ccccc1OCC(=O)N/N=C/c1ccccc1OCC` end up with in this test?
Outgoing: inactive

Incoming: Then this compound: `CC(=O)c1cccc(NC(=O)c2cnn(-c3ccccc3)c2C)c1`
Outgoing: inactive

Incoming: Then this compound: CCOC(=O)c1c(C)n(-c2ccc(C)cc2)c2c(C(C(C)=O)C(=O)O)c(Br)c(O)c(O)c12 (stereo not given)
Outgoing: inactive

Incoming: Then this compound: `Cn1c2ccccc2c2ccc3c(c21)C(=O)C=CC3=O`
Outgoing: inactive

Incoming: Then this compound: `Cn1cc(S(=O)(=O)CC(=O)N2CCc3ccccc32)c2ccccc21`
Outgoing: inactive

Incoming: Then this compound: `O=C(Cn1sc2ccccc2c1=O)Nc1ccc(F)cc1`
Outgoing: active

Incoming: Then this compound: `O=C(CNC(=O)c1cccs1)OCC(=O)c1ccc([N+](=O)[O-])cc1`
Outgoing: active

Incoming: Then this compound: `COc1cc(N=c2ssnc2Cl)c(OC)cc1Cl`
Outgoing: active

###

# Target or test system: glucose-6-phosphate dehydrogenase-6-phosphogluconolactonase (Plasmodium falciparum 3D7)
# Experiment summary: inhibition of P. falciparum G6PD activity – biochemical, end-point NADPH detection, orthogonal assay, dose response (AID 540252)
# Condition summary: purified PfG6PD enzyme, NADPH direct detection
The source made the active and inactive calls. How the calls were made is not given here.
Output constraint: value belongs to active, inactive

Molecule: O=c1[nH]nc(CNc2ccc(O)cc2)c2ccccc12
Class name: inactive

Molecule: Cc1ccc(/C=C2\C(=O)NC(=S)N(c3ccccc3F)C2=O)s1
Class name: inactive

Read the next record carefully.
Incoming: What classification did `COC1=C(OC)C(=O)C(Sc2ccc3ccccc3c2)=CC1=O` end up with in this test?
Outgoing: active

Just for reference, PubChem BioAssay AID540252 is where these values come from.
